These data points were gathered from ChEMBL document CHEMBL5316327.

# Target under test: Muscarinic acetylcholine receptor M3 (Homo sapiens)
# Sequence (P20309 whole entry): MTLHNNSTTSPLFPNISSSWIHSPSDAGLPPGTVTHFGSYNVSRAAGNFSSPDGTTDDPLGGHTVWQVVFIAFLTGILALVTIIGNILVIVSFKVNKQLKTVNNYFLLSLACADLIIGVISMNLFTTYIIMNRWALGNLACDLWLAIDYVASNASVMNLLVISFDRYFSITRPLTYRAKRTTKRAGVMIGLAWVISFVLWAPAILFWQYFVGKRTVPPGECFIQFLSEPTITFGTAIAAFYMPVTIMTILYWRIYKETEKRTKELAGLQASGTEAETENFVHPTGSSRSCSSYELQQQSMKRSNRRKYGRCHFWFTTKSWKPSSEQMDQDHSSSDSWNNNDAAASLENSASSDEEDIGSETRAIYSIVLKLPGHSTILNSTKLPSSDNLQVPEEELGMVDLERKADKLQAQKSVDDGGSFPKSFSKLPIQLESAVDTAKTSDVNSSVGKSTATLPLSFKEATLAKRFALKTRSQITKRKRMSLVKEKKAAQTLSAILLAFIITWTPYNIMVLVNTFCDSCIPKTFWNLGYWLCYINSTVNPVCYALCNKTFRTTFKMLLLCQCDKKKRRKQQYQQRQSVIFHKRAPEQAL
Observed property: Ki (nM)
Give the value in nM but do not write nM after it.

The value of Ki recorded for CCN(CC)CCCC(C)Nc1cnc(C(=O)Nc2cc(F)cc3cccnc23)cn1 (stereo unspecified) when tested on Muscarinic acetylcholine receptor M3 (Homo sapiens) reads 1350

* * *

# Target under test: 5-hydroxytryptamine receptor 2B (Homo sapiens, UniProt P41595)
# Sequence (P41595 whole entry): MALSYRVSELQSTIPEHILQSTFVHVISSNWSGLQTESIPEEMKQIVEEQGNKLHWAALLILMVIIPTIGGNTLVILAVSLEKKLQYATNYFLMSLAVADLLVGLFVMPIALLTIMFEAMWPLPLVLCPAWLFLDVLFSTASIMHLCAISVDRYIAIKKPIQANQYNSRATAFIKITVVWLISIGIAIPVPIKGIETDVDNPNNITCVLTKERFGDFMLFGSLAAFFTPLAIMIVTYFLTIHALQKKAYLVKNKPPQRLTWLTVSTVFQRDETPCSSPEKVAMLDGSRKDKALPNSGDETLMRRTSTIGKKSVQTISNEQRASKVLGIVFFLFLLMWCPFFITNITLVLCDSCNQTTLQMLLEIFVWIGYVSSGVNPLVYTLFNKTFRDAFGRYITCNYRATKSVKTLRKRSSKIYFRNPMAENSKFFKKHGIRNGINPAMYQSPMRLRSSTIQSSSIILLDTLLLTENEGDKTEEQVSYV
Observed property: Ki (nM)
Give the value in nM but do not write nM after it.

GET /values?item= CCN(CC)CCCC(C)Nc1cnc(C(=O)Nc2ccc(Cl)c3cccnc23)cn1 (stereo unspecified) &system= 5-hydroxytryptamine receptor 2B (Homo sapiens, UniProt P41595) returns Ki: 427

* * *

# Target under test: Sigma intracellular receptor 2 (Homo sapiens)
# Sequence (Q5BJF2 whole entry): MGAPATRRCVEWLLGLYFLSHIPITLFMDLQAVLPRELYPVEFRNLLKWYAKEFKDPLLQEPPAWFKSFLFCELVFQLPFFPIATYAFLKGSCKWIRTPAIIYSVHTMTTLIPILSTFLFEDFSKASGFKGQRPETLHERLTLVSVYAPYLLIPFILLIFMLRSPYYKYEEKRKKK
# Assay comment: Displacement of [3H][…]ditolylguanidine from human sigma 2 receptor transfected in human HEK293T cells assessed as inhibition constant by radioligand competition binding assay
Collected pKi values appear next to each entry.
Interpret pKi as the negative base-10 log of the concentration measured in mol/L.

// worked examples, pKi included
>  <Compound>
CCN(CC)CCCC(C)Nc1cnc(CNc2cc(F)cc3cccnc23)cn1 (stereo not given)

>  <pKi>
7.19

$$$$
>  <Compound>
O=C(Nc1cc(F)cc2cccnc12)c1cnc(NCCN2CCS(=O)(=O)CC2)cn1

>  <pKi>
5.42

$$$$

// CCN(CC)CCCC(C)Nc1cnc(C(=O)Nc2ccc(Cl)c3cccnc23)cn1 (stereo not given) : pKi value = 7.33

Entry CCN(CC)CCCC(C)Nc1cnc(C(=O)Nc2cc(O)cc3cccnc23)cn1 (stereo not given) ; pKi = 6.34

Record CCN(CC)CCCC(C)Nc1cnc(C(=O)Nc2ccc(F)c3cccnc23)cn1 (stereo not given) , field pKi: 7.74

GET /value?item= CCN(CC)CCCC(C)Nc1cnc(C(=O)Nc2cc(C(F)(F)F)cc3cccnc23)cn1 (stereo not given) &field=pKi returns 6.81

The compound identified as CCN(CC)CCCC(C)Nc1cnc(C(=O)Nc2cccc3ccc(OC)nc23)cn1 (stereo not given) registered its pKi at 7.89

Value of pKi reported for the compound CCN(CC)CCCC(C)Nc1cnc(C(=O)Nc2cccc3cc(C)cnc23)cn1 (stereo not given) is 7.80

Short answer for CCN(CC)CCCC(C)Nc1cnc(C(=O)Nc2cccc3ccc(C)nc23)cn1 (stereo not given) : pKi was 7.36

Record summary for CN(C)CCOc1cnc(C(=O)Nc2cc(F)cc3cccnc23)cn1 : reported pKi = 5.87

* * *

# System: MIA PaCa-2
# Assay comment: cells
# Measurement parameters: Homo sapiens, MIA PaCa-2, 72 h
Observed property: pIC50
Here pIC50 is given on a logarithmic scale as minus log10 of the concentration in mol/L.

Past entries and their recorded results:
>  <Molecule>
CN(C)CCCNc1cnc(C(=O)Nc2cc(F)cc3cccnc23)cn1

>  <Meas value>
5.62

$$$$
>  <Molecule>
CN(C)CCNc1cnc(C(=O)Nc2cc(F)cc3cccnc23)cn1

>  <Meas value>
5.85

$$$$
>  <Molecule>
CCN(CC)CCCC(C)Nc1cnc(C(=O)Nc2ccc(OC)c3ccc(OC)nc23)cn1 (stereo unspecified)

>  <Meas value>
5.54

$$$$
>  <Molecule>
CCN(CC)CCCC(C)Nc1cnc(C(=O)Nc2cc(O)cc3cccnc23)cn1 (stereo unspecified)

>  <Meas value>
5.10

$$$$
>  <Molecule>
Cc1cc(NC(=O)c2cnc(S(=O)(=O)NCCN(C)C)cn2)c2ncccc2c1

>  <Meas value>
6.22

$$$$

# molecule CCN(CC)CCCC(C)Nc1cnc(C(=O)Nc2cccc3cc(C)cnc23)cn1 (stereo unspecified) ; its pIC50 = 5.64

Lab note: CCN(CC)CCCC(C)Nc1cnc(C(=O)Nc2cccc3cc(Cl)cnc23)cn1 (stereo unspecified) gave pIC50 of 5.42

Note to self: pIC50 recorded for CCN(CC)CCCC(C)Nc1cnc(C(=O)Nc2cc(F)c(Cl)c3cccnc23)cn1 (stereo unspecified) was 5.41

// field: pIC50; key: CCN(CCO)CCCC(C)Nc1cnc(C(=O)Nc2cc(C)cc3cccnc23)cn1 (stereo unspecified) ; value = 5.02

pIC50 reading for CCN(CC)CCCC(C)Nc1cnc(C(=O)Nc2ccc(Cl)c3ccc(OC)nc23)cn1 (stereo unspecified) : 5.27

// field: pIC50; key: CCN(CC)CCCC(C)Nc1cnc(C(=O)Nc2cc(C)cc3cccnc23)cn1 (stereo unspecified) ; value = 5.96

Lab note: CCN(CC)CCCC(C)Nc1cnc(C(=O)Nc2cccc3cccnc23)cn1 (stereo unspecified) gave pIC50 of 5.43

CCN(CC)CCCC(C)Nc1cnc(C(=O)Nc2cccc3c(Cl)ccnc23)cn1 (stereo unspecified) yielded pIC50 of 5.47

Summary for this molecule, O=C(Nc1cc(F)cc2cccnc12)c1cnc(NCCN2CCCC2)cn1 : pIC50 is 5.70

pIC50 for O=C(CCNc1cnc(C(=O)Nc2cc(F)cc3cccnc23)cn1)NO is 4.70

What the record says about CCN(CC)CCCC(C)Nc1cnc(C(=O)Nc2ccc(F)c3cccnc23)cn1 (stereo unspecified) : pIC50 is 5.52

Memo: CCN(CC)CCCC(C)Nc1cnc(C(=O)Nc2cccc3ccc(OC)nc23)cn1 (stereo unspecified) , reported pIC50: 5.72

Value of measured pIC50 for the entry Cc1cc(NC(=O)c2cnc(NCCN3CCNCC3)cn2)c2ncccc2c1 : 4.81

Given item Cc1cc(NC(=O)c2cnc(N3CCN(CCN)CC3)cn2)c2ncccc2c1 , the value recorded as its pIC50 is 5.13

GET /value?item= CCN(CC)CCCC(C)Nc1cnc(C(=O)Nc2cc(Br)cc3cccnc23)cn1 (stereo unspecified) &field=pIC50 returns 5.80

Briefly, pIC50 measured for CN(C)CCOc1cnc(C(=O)Nc2cc(F)cc3cccnc23)cn1 : 6.22

Consider CCN(CC)CCCC(C)Nc1cnc(C(=O)Nc2ccc(OC)c3cccnc23)cn1 (stereo unspecified) . Its measured pIC50 is 5.17

Consider Cc1cc(NC(=O)c2cnc(OC3CCNCC3)cn2)c2ncccc2c1 . Its measured pIC50 is 5.19

So for CCN(CC)CCCC(C)Nc1ccc(S(=O)(=O)Nc2cc(F)cc3cccnc23)nc1 (stereo unspecified) , the logged pIC50 turned out to be 5.42

Quick note, pIC50 for CCN(CC)CCCC(C)Nc1cnc(C(=O)Nc2cc(C3CC3)cc3cccnc23)cn1 (stereo unspecified) landed at 5.52

Sample CCN(CC)CCCC(C)Nc1cnc(C(=O)Nc2cc(Cl)cc3cccnc23)cn1 (stereo unspecified) ; pIC50 observed: 5.74

Sure, the documented pIC50 for CCCNc1cnc(C(=O)Nc2cc(F)cc3cccnc23)cn1 is 5.59

The measured pIC50 associated with CCN(CC)CCCC(C)Nc1cnc(C(=O)Nc2ccc(C)c3cccnc23)cn1 (stereo unspecified) reads 5.77

The value of pIC50 measured for the molecule COCCNc1cnc(C(=O)Nc2cc(F)cc3cccnc23)cn1 turned out to be 5.92
